# EXPERIMENTAL_TARGET: cloned human κ opioid receptor (KOP) (Homo sapiens, UniProt P41145)
# Sequence (P41145 whole entry): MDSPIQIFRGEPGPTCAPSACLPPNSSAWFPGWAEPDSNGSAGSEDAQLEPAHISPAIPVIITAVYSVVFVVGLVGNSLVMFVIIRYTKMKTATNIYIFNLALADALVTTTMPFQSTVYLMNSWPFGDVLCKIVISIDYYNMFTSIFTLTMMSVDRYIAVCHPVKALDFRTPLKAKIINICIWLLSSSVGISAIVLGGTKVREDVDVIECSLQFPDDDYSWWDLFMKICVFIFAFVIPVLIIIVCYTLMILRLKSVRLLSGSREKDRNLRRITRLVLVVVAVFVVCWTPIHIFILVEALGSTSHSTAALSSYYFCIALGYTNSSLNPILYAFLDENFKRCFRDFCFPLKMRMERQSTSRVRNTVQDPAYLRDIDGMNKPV
# RUN_DESCRIPTION: [35S]GTPγS binding assay, inhibition of U69,593-stimulated binding
# Type: biochemical
Please use TRUE whenever Kb is not below 3 nM, and FALSE whenever it is.

Cc1cccc(Oc2ccc(C(=O)N[C@H](CN3CCN(c4cccc(O)c4)[C@@H](C)C3)C(C)C)c(O)c2)c1 [12h]: FALSE
CC(C)[C@@H](CN1CCN(c2cccc(O)c2)[C@@H](C)C1)NC(=O)c1ccc(-c2ccccc2)cc1: FALSE
COc1ccc(C(=O)N[C@H](CN2CCN(c3cccc(O)c3)[C@@H](C)C2)C(C)C)cc1OC: TRUE
CCCCc1ccc(C(=O)N[C@H](CN2CCN(c3cccc(O)c3)[C@@H](C)C2)C(C)C)cc1: FALSE

Below: the item to evaluate.
stdin: Test whether the compound CC(C)[C@@H](CN1CCN(c2cccc(O)c2)[C@@H](C)C1)NC(=O)c1ccc(Oc2ccccc2O)c(Cl)c1 [12j] records Kb of 3 nM or higher.
stdout: TRUE

====

# EXPERIMENTAL_TARGET: cloned human δ opioid receptor (DOP) (Homo sapiens, UniProt P41143)
# Sequence (P41143 whole entry): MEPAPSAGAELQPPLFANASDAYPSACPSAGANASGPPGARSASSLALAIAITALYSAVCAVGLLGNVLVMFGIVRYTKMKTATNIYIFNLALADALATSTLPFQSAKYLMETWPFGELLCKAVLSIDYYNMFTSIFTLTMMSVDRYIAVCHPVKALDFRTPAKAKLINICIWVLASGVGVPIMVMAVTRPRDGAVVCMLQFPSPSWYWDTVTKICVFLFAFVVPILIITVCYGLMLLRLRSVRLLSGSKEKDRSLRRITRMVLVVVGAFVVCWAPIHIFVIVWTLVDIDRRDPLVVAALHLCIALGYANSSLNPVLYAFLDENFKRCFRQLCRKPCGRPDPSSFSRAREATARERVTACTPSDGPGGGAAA
# RUN_DESCRIPTION: [35S]GTPγS binding assay, inhibition of DPDPE-stimulated binding
# Assay type: biochemical
Quick reference for log10 Kb among some compounds
Remember, log10 of Kb, in nM.

CC(C)[C@@H](CN1CCN(c2cccc(O)c2)[C@@H](C)C1)NC(=O)c1ccc(-c2ccccc2)cc1 [compound 22]: 2.41

stdin: Field request: log10 Kb | item: CCCCc1ccc(C(=O)N[C@H](CN2CCN(c3cccc(O)c3)[C@@H](C)C2)C(C)C)cc1 [compound 23]
stdout: 2.36

stdin: Repeat for the following compound: CC(C)[C@@H](CN1CCN(c2cccc(O)c2)[C@H](C)C1)NC(=O)[C@H]1Cc2ccc(O)cc2CN1 [10b]
stdout: 3.19

stdin: Now consider COc1cc(C(=O)N[C@H](CN2CCN(c3cccc(O)c3)[C@@H](C)C2)C(C)C)ccc1Oc1ccccc1O [12i] and answer again.
stdout: 2.07

stdin: Note, next up: CC(C)[C@@H](CN1CCN(c2cccc(O)c2)[C@@H](C)C1)NC(=O)[C@H]1Cc2ccc(O)cc2CN1 [10a]
stdout: 3.12

stdin: Proceed to COc1cc(C(=O)N[C@H](CN2CCN(c3cccc(O)c3)[C@@H](C)C2)C(C)C)ccc1Oc1cc(C)ccc1O [12k]
stdout: 2.07

stdin: Queued: Cc1cccc(Oc2ccc(C(=O)N[C@H](CN3CCN(c4cccc(O)c4)[C@@H](C)C3)C(C)C)c(O)c2)c1 [12h]
stdout: 2.94

stdin: Thanks! And Cc1cccc(Oc2ccc(C(=O)N[C@H](CN3CCN(c4cccc(O)c4)[C@@H](C)C3)C(C)C)c(C)c2)c1 [12f] ?
stdout: 1.15

stdin: Note, next up: CC(C)[C@@H](CN1CCN(c2cccc(O)c2)[C@@H](C)C1)NC(=O)c1ccc(Oc2ccccc2O)c(Cl)c1 [12j]
stdout: 2.32

====

# EXPERIMENTAL_TARGET: cloned human μ opioid receptor (MOP) (Homo sapiens, UniProt P35372)
# Sequence (P35372 whole entry): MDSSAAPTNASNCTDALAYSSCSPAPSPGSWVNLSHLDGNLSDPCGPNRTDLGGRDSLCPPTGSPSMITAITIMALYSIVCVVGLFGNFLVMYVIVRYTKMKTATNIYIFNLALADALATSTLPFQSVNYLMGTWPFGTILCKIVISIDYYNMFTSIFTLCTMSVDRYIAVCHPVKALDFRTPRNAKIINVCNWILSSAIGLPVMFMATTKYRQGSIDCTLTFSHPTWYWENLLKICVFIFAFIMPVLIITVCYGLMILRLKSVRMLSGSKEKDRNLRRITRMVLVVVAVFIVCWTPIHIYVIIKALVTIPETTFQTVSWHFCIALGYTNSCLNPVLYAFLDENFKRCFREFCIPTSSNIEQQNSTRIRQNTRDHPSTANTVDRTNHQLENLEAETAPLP
# RUN_DESCRIPTION: [35S]GTPγS binding assay, inhibition of DAMGO-stimulated binding
# Type: biochemical
ENDPOINT_LABEL: log10 Kb (log10 of the value in nM)
Plainly stated, the numbers are log10 of Kb given in nM.

Some compounds with recorded log10 Kb:
CC(C)[C@@H](CN1CCN(c2cccc(O)c2)[C@@H](C)C1)NC(=O)[C@H]1Cc2ccc(O)cc2CN1 [10a]: 1.87
COc1cc(C(=O)N[C@H](CN2CCN(c3cccc(O)c3)[C@@H](C)C2)C(C)C)ccc1Oc1cc(C)ccc1O [12k]: 1.01
Cc1cccc(Oc2ccc(C(=O)N[C@H](CN3CCN(c4cccc(O)c4)[C@@H](C)C3)C(C)C)c(C)c2)c1 [12f]: 1.26

stdin: So what does the record say about log10 Kb for CC(C)[C@@H](CN1CCN(c2cccc(O)c2)[C@@H](C)C1)NC(=O)c1ccc(-c2ccccc2)cc1 ?
stdout: 0.94

stdin: Follow-up entry: CC(C)[C@@H](CN1CCN(c2cccc(O)c2)[C@@H](C)C1)NC(=O)c1ccc(Oc2ccccc2O)c(Cl)c1 [12j]
stdout: 1.56

====

The entries below come with measured Kb values attached.
# EXPERIMENTAL_TARGET: cloned human μ opioid receptor (MOP) (Homo sapiens, UniProt P35372)
# RUN_DESCRIPTION: [35S]GTPγS binding assay, inhibition of DAMGO-stimulated binding
# Format: biochemical
# number then unit; no other words

Recorded Kb, per entry:
CCCCc1ccc(C(=O)N[C@H](CN2CCN(c3cccc(O)c3)[C@@H](C)C2)C(C)C)cc1: 21.1 nM
COc1ccc(C(=O)N[C@H](CN2CCN(c3cccc(O)c3)[C@@H](C)C2)C(C)C)cc1OC: 334 nM
Cc1cccc(Oc2ccc(C(=O)N[C@H](CN3CCN(c4cccc(O)c4)[C@@H](C)C3)C(C)C)c(O)c2)c1 [12h]: 119 nM

stdin: Provide the documented Kb with cloned human μ opioid receptor (MOP) (Homo sapiens, UniProt P35372) as the system for CC(C)[C@@H](CN1CCN(c2cccc(O)c2)[C@H](C)C1)NC(=O)[C@H]1Cc2ccc(O)cc2CN1 [10b]
stdout: 49.4 nM
